Origin of values: ChEMBL document CHEMBL4049450

test: Oral bioavailability in rat at 5 mg/kg; assay type: ADME, organism-based; conditions: in vivo
# Lookup of reported bioavailability keyed by entry
Write the number in % without appending the unit.

Please review the following examples before continuing.
{"compound-string": "Cc1ccc(-c2n[nH]c3cnc(-c4cccnc4)cc23)nc1N1CCC[C@H](N)C1", "test-value": 0}
{"compound-string": "CCn1cc(-c2cc3c(-c4cccc(N5CCC[C@@H](N)C5)n4)n[nH]c3cn2)cn1", "test-value": 1}
{"compound-string": "Cc1cncc(-c2cc3c(cn2)cnn3-c2cccc([C@H]3CNCCC3(F)F)n2)n1", "test-value": 57}

Need bioavailability of `CN1CCN(c2cc3c(-c4cccc(N5CCNCC5)n4)n[nH]c3cn2)CC1=O` , thanks.
1.4

For `Cc1cncc(-c2cc3c(cn2)cnn3-c2cccc(N3CCCNCC3)n2)n1` , what is its reported bioavailability?
42

Fill in the blank: the reported bioavailability of `COc1ccc(-n2ncc3cnc(-c4cncc(C)n4)cc32)nc1N1CCC[C@H](N)C1` is ____.
103

For the compound `Cc1cncc(-c2cc3c(-c4cccc(N5CCCNCC5)n4)n[nH]c3cn2)n1` , what bioavailability is on record?
1.3

----------
Endpoint: pKi. System: Serine/threonine-protein kinase pim-1 (Homo sapiens). Items follow.
Sequence (P11309 whole entry): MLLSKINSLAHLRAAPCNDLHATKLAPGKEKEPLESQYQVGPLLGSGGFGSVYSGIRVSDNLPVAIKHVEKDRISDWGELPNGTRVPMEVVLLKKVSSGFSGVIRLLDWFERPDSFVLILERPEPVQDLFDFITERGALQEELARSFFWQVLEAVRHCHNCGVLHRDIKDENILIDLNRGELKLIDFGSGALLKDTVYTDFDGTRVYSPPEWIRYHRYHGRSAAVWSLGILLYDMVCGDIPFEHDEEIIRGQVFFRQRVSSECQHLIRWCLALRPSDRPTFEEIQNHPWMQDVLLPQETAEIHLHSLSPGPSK
# reply with the number alone; pKi is -log10 of concentration in mol/L

{"compound-string": "Cc1cncc(-c2cnc3cnn(-c4cccc(N5CCCNCC5)n4)c3c2)n1", "test-value": 9.10}

Param readout = pKi; param system = Serine/threonine-protein kinase pim-1 (Homo sapiens); param query = `Cc1cncc(-c2cc3c(-c4cccc(N5CCCNCC5)n4)nsc3cn2)n1` ; response: value
9.15

----------
The following molecules are shown together with reported remaining at 1 h values.
assay: Metabolic stability in rat intestinal microsomes assessed as compound remaining after 60 mins in presence of NADPH; format: ADME, Intestine, Microsome; conditions: read-out: Stability
# number only, unit % dropped from output

{"compound-string": "Cc1ccc(-c2n[nH]c3cnc(-c4cccnc4)cc23)nc1N1CCC[C@H](N)C1", "unit": "%", "test-value": 37}
{"compound-string": "Cc1cncc(-c2cc3c(-c4cccc(N5CCCNCC5)n4)nsc3cn2)n1", "unit": "%", "test-value": 101}
{"compound-string": "Cc1cncc(-c2cc(F)c3cnn(-c4cccc(N5CCCNCC5)n4)c3c2)n1", "unit": "%", "test-value": 107}
{"compound-string": "Cc1cncc(-c2cc3c(cnn3-c3cccc(N4CCCNCC4)n3)nn2)n1", "unit": "%", "test-value": 118}

# input molecule: `Cc1cncc(-c2cc3c(-c4cccc(N5CCCNCC5)n4)n[nH]c3cn2)n1` ; wanted: its remaining at 1 h
97

----------
test: Metabolic stability in rat intestinal microsomes assessed as compound remaining after 60 mins in presence of NADPH/UDPGA; format: ADME, Intestine, Microsome; conditions: intestinal microsomes, read-out: Stability
value-type: remaining at 1 h (%)
The answer is to be given in %; state only the numeric part.

Worked cases, answers included:
{"compound-string": "Cc1cncc(-c2cc3c(ccn3-c3cccc(N4CCCNCC4)n3)cn2)n1", "unit": "%", "test-value": 102}
{"compound-string": "Cn1cc(-c2cc3c(-c4cccc(N5CCC[C@H](N)C5)n4)nn(C)c3cn2)cn1", "unit": "%", "test-value": 102}

Requested read-out: remaining at 1 h. Entry: `Cc1cncc(-c2cc3c(cn2)cnn3-c2cccc(N3CCCNCC3)n2)n1`
91

Report remaining at 1 h for `Cc1ccc(-c2n[nH]c3cnc(-c4cccnc4)cc23)nc1N1CCC[C@H](N)C1` please.
27

remaining at 1 h lookup needed for `Cn1cc(-c2cc3c(-c4cccc(N5CCC[C@H](N)C5)n4)n[nH]c3cn2)cn1` , thanks.
69

So what's the measured remaining at 1 h for this one? `COc1ccc(-n2ncc3cnc(-c4cncc(C)n4)cc32)nc1N1CCC[C@H](N)C1`
101

----------
test: Metabolic stability in rat intestinal microsomes assessed as compound remaining after 60 mins in presence of UDPGA; assay type: ADME, Intestine, Microsome; conditions: read-out: Stability
value-type: remaining at 1 h

These recorded examples may help you get a feel for the data.
{"compound-string": "Cc1cncc(-c2cc3c(cn2)cnn3-c2cccc(N3CCCNCC3)n2)n1", "test-value": "85%"}
{"compound-string": "Cc1cncc(-c2cc(F)c3cnn(-c4cccc(N5CCCNCC5)n4)c3c2)n1", "test-value": "103%"}

Okay, now this molecule:
Requested read-out: remaining at 1 h. Entry: `Cc1cncc(-c2cc3c(ccn3-c3cccc(N4CCCNCC4)n3)cn2)n1`
104%

----------
Entries and their remaining at 1 h
experiment: Metabolic stability in rat intestinal microsomes assessed as compound remaining after 60 mins in presence of NADPH/UDPGA; format: ADME, Intestine, Microsome; conditions: intestinal microsomes, read-out: Stability
The answer is to be given in %; state only the numeric part.

Use these answered entries as a reference point.
{"compound-string": "Cc1cncc(-c2cc3c(cnn3-c3cccc(N4CCCNCC4)n3)nn2)n1", "value-type": "remaining at 1 h", "test-value": 80}
{"compound-string": "Cc1cncc(-c2cc3c(-c4cccc(N5CCCNCC5)n4)n[nH]c3cn2)n1", "value-type": "remaining at 1 h", "test-value": 59}

Item under review: `Cc1cncc(-c2cc3c(-c4cccc(N5CCCNCC5)n4)nsc3cn2)n1` . Reported remaining at 1 h?
98
